Values compiled from paper PMC4552634.

# System: P. falciparum stage V gametocytes
# Set-up: BacTiter-Glo ATP luminescence viability of purified stage V gametocytes in 384-well plates, per cent inhibition versus DMSO
# experimental_context: 48 h, 5 µM; inhibitor
The campaign covered roughly 13,000 compounds. About 3,200 (25%) showed an effect of 50% or more. The list shows a part of the results.
parameter_measured: % Inhibition (%)

1) CS(=O)(=O)c1ccc(CCNCc2ccc(-c3ccc(CN(C(=O)c4ccco4)C4CCN(Cc5ccccc5)CC4)cc3)nc2)cc1 :: 87.45
2) CCC(CC)n1cc2c(ccc3nc(N)nc(N)c32)n1 :: -28.37
3) O=C(Cc1cccc(Cl)c1)Nc1cccc(-c2c[nH]c3nc(Nc4cccc(OCc5ccccc5)c4)ncc23)c1 :: -43.48
4) O=C(Nc1ccc(N2CCN(Cc3cccc(F)c3)CC2)cc1)c1cccs1 :: -0.3438
5) CN(C)c1ccc(C=C2SC(=O)NC2=Nc2ccccc2)cc1 :: 34.75

----------
# Test system: P. falciparum stage V gametocytes
# Design: BacTiter-Glo ATP luminescence viability of purified stage V gametocytes in 384-well plates, per cent inhibition versus DMSO
# experimental_context: 48 h, 5 µM; inhibitor
Out of some 13,000 compounds screened, about 3,200 (25%) showed an effect of 50% or more. Some of the results follow.
Measured % Inhibition by item
parameter_measured: % Inhibition (%)

1) CCCC(=O)Nc1ccc(OCCCN(Cc2ccccc2OC(F)(F)F)c2ccc(C#N)c(C(F)(F)F)c2)cc1 :: 14.29
2) COc1cc(OC)c(OC)cc1CN1CCC2(CC1)CN(Cc1ccc(Cl)c(Cl)c1)C(=O)O2 :: 23.65
3) Cc1cc(NCCC(=O)NCc2cccc(F)c2)nc(Nc2ccccc2)n1 :: 9.488
4) Cc1ccc2nc(-c3cc(-c4ccc(OCc5ccccc5)cc4)cnc3N)[nH]c2c1 :: -50.65
5) CN(C(=O)C(C)(C)Oc1ccc(Cl)cc1)C1CCN(CCCCCNC(=O)/C=C/c2ccc(Cl)c(Cl)c2)CC1 :: 51.05
6) C[C@@H](CC1CCCCC1)OC(=O)N(C)[C@H]1CCN(C#N)C1 :: 35.73
7) O=c1cc(NCCCNCc2cc(F)cc(C(F)(F)F)c2)[nH]c2ccccc12 :: 25.21
8) CC(C)(C(=O)NCCC1CCN(CCCCCNC(=O)/C=C/c2ccc(Cl)c(Cl)c2)CC1)c1ccc(Cl)cc1 :: 52.94
9) COc1ccc(Nc2nc(NCc3cccc(NS(C)(=O)=O)c3)cc(-c3ccc(OC)cc3)n2)cc1 :: -11.45
10) COc1cccc(NC(=O)Nc2ccc(Nc3nc(C)cc(N(C)C)n3)cc2)c1 :: 26.66
11) Cc1cc(C(=O)Nc2ccc3c(ccn3C3CCCN(Cc4ccc(C(F)(F)F)cc4F)CC3)c2)no1 (stereo not shown) :: 41.42
12) COc1cc(CCOc2c(C)nc(N)nc2N)cc(OC)c1OC :: -25.98
13) O=C(NCCN1CCC(c2ccncc2)CC1)c1cccc(Nc2nccc(Nc3ccc(Oc4ccccc4)cc3)n2)c1 :: -52.85
14) O=C(/C=C/c1ccc(Cl)c(Cl)c1)NCCCCCN1CCC(CCNC(=O)/C=C/c2cc(C(F)(F)F)ccc2F)CC1 :: -14.45
15) O=C(Nc1cc(C(F)(F)F)ccc1N1CCOCC1)C(Cl)(Cl)Cl :: 15.78
16) CC(C)(Oc1ccc(Cl)cc1)C(=O)NCCC1CCN(CCCCCNC(=O)/C=C/c2ccc(Cl)c(Cl)c2)CC1 :: 87.45

----------
# Test system: P. falciparum stage V gametocytes
# Parameters: BacTiter-Glo ATP luminescence viability of purified stage V gametocytes in 384-well plates, per cent inhibition versus DMSO
# experimental_context: 48 h, 5 µM; inhibitor
Screen size: about 13,000 compounds; about 3,200 (25%) showed an effect of 50% or more. Some of the results follow.
List of % Inhibition values.
parameter_measured: % Inhibition (%)

1. COc1ccccc1C1CCN(C2CCC(NC(=O)/C=C/c3cc(F)cc(F)c3)CC2)CC1 (stereo not shown) [TCMDC-133492] :: -91.94
2. COc1ccc(CNC(=O)Nc2cccc(-c3csc(N=C(N)N)n3)c2)cc1 [TCMDC-139554] :: 8.01
3. NC(N)=Nc1nc(-c2cccc(NC(=O)C(F)(F)F)c2)cs1 [TCMDC-137441] :: -3.219
4. CS(=O)(=O)Nc1ccc2[nH]cc(C3CC4CCC(C3)N4CC3CCC(NC(=O)/C=C/c4ccc(Cl)c(Cl)c4)CC3)c2c1 (stereo not shown) [TCMDC-139807] :: 14.27
5. NC(N)=Nc1nc(-c2cccc(NC(=O)Cc3ccccc3)c2)cs1 [TCMDC-139599] :: 13.87
6. O=C(/C=C/c1ccccc1Cl)NC1CCC(CN2C3CCC2CC(c2c[nH]c4ccccc24)C3)CC1 (stereo not shown) [TCMDC-139931] :: 92.87
7. CCOC(=O)c1ccc(Nc2cc(Nc3ccc(C(=O)OCC)cc3)nc(C)n2)cc1 [TCMDC-125781] :: 36.3
8. NC1=NC(c2ccccc2)(c2ccccc2)C(=O)N1Cc1ccc(-c2cccnc2)cc1 [TCMDC-136999] :: -17.43
9. NC(N)=Nc1nc(-c2ccc(NCc3ccc(CNc4cccc(-c5csc(N=C(N)N)n5)c4)cc3)cc2)cs1 [TCMDC-140699] :: 83.03
10. Cc1ccccc1CNC(=O)Nc1cccc(-c2csc(N=C(N)N)n2)c1 [TCMDC-139553] :: 79.76
11. NC(N)=Nc1nc(-c2cccc(NC(=O)NCc3ccc(OC(F)(F)F)cc3)c2)cs1 [TCMDC-139556] :: 86.49
12. COc1cc2c(cc1OC)CN(CCc1ccc(NC(=O)c3cc4cc(OC(F)(F)F)ccc4[nH]3)cc1)CC2 [TCMDC-138250] :: 36.42
13. O=C(/C=C/c1c(Cl)cccc1Cl)NC1CCC(CN2C3CCC2CC(c2c[nH]c4ccccc24)C3)CC1 (stereo not shown) [TCMDC-140103] :: 74.61
14. O=C(Nc1cccc(-c2csc(NC(=O)c3ccc4ccccc4c3)n2)c1)c1ccc2ccccc2c1 [TCMDC-124033] :: -5.611
15. NC(N)=Nc1nc(-c2cccc(NC(=O)NCc3cccc4ccccc34)c2)cs1 [TCMDC-139552] :: 11.54
16. NC(N)=Nc1nc(-c2cccc(NC(=O)NCCc3c[nH]c4ccc(OCc5ccccc5)cc34)c2)cs1 [TCMDC-139557] :: -16.48

----------
# System: P. falciparum stage V gametocytes
# Set-up: BacTiter-Glo ATP luminescence viability of purified stage V gametocytes in 384-well plates, per cent inhibition versus DMSO
# experimental_context: 48 h, 5 µM; inhibitor
Screen size: about 13,000 compounds; about 3,200 (25%) showed an effect of 50% or more. Some of the results follow.
The entries below come with measured % Inhibition values attached.
parameter_measured: % Inhibition

1. O=C(CC(c1ccccc1)c1ccccc1O)N1CCOCC1 (stereo not shown) :: -30.1%
2. CN1CCC(N2CCN(Cc3cccc(-c4ccc(-c5nc6ccc(F)cc6[nH]5)cc4)c3)CC2)CC1 :: 97.12%
3. CC(CN1CCN(C)CC1)C(=O)Nc1ccc(-c2ccc(-c3nc4ccc(F)cc4[nH]3)cc2)cc1 (stereo not shown) :: 4.283%
4. COc1ccc2c(CNCCCCCCNCc3c(OC)ccc4cc(OC)ccc34)c(OC)ccc2c1 :: 117.1%
5. COc1ccc2c(OC)c(CNCCCCCCNCc3ccc4cc(OC)ccc4c3OC)ccc2c1 :: 105.9%
6. COc1ccc(OC)c(C(O)CNC(C)C)c1 (stereo not shown) :: 22.77%
7. OCCN1CCN(Cc2ccc(-c3cccc(-c4nc5ccc(F)cc5[nH]4)c3)cc2)CC1 :: -6.536%
8. OCCN1CCN(Cc2cccc(-c3ccc(-c4nc5ccc(C(F)(F)F)cc5[nH]4)cc3)c2)CC1 :: 3.481%
9. CN1CCC(N2CCN(Cc3cccc(-c4ccc(-c5nc6ccc(C(F)(F)F)cc6[nH]5)cc4)c3)CC2)CC1 :: 104%
10. c1ccc(COc2ccc(Nc3ncnc4ccc(-c5ccc(CN6CCSCC6)o5)cc34)cc2)cc1 :: 13.7%
11. CN1CCC(N2CCN(Cc3ccc(-c4cccc(-c5nc6ccc(F)cc6[nH]5)c4)cc3)CC2)CC1 :: 52.56%
12. Fc1ccc2nc(-c3cccc(-c4ccc(CN5CCN(CCN6CCOCC6)CC5)cc4)c3)[nH]c2c1 :: 39.55%
13. CC(CN1CCN(C)CC1)C(=O)Nc1cccc(-c2ccc(-c3nc4ccc(C(F)(F)F)cc4[nH]3)cc2)c1 (stereo not shown) :: 80.48%
14. COc1ccc2cc(CNCCCCCCNCc3ccc4cc(OC)ccc4c3)ccc2c1 :: 110.4%
15. CCOC(=O)c1c(C)n(-c2ccc(Cl)cc2)c2ccc(OC(=O)C=Cc3ccccc3)cc12 :: -42.41%
16. COc1cc(CNCCCCCCNCc2cc(OC)cc3ccccc23)c2ccccc2c1 :: 16.43%
